System: BT-549 (Breast Carcinoma)
Experiment: Bliss excess, mean over the matrix (fraction); higher = more synergy;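 note: after 72 h of two-drug dosing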
I'd appreciate it if you could supply Bliss excess values for the items below.
Would you mind answering with just the numeric figure?

Param item: C=CCn1c(=O)c2cnc(Nc3ccc(N4CCN(C)CC4)cc3)nc2n1-c1cccc(C(C)(C)O)n1 [AZD1775] + CCc1c2c(nc3ccc(O)cc13)-c1cc3c(c(=O)n1C2)COC(=O)[C@]3(O)CC [SN-38] (first compound max 1 µM, partner max 0.3 µM) ; param system: BT-549 (Breast Carcinoma); output Bliss excess: -0.057

Let me check: Cn1cnc2c(F)c(Nc3ccc(Br)cc3Cl)c(C(=O)NOCCO)cc21 [Selumetinib] + CC(C)n1c(=O)n(C)c2cnc3cc(F)c(-c4ccc(OCCCN5CCCCC5)nc4)cc3c21 [AZD1390] (first compound max 10 µM, 7x7, partner max 0.3 µM) , system BT-549 (Breast Carcinoma), measured Bliss excess is -0.0438

Assay BT-549 (Breast Carcinoma), sample C[C@@H](c1ccc2nccn2c1)n1nnc2ncc(-c3cnn(C)c3)nc21 [Savolitinib] + Cc1c2c(nn1C)CSCc1cc(n(C)n1)CSc1cc(c3ccccc3c1)OCCCc1c(C(=O)O)n(C)c3c-2c(Cl)ccc13 [AZD5991] (first compound max 1 µM, 7x7, partner max 1 µM) , Bliss excess read: -0.0229

---

Test system: NEC8 (Other Solid Carcinomas)
Test: Bliss excess, mean over the matrix (fraction); higher = more synergy
Could you please report measured Bliss excess for the items listed next?
Give only the figure.

Known value: NEC8 (Other Solid Carcinomas) Bliss excess of the molecule COc1nnc2ccc(N3CCC(c4ccc(OCCN5CCN(C)C(=O)[C@H]5C)cc4)CC3)nn12 [AZD5153] + C=CCn1c(=O)c2cnc(Nc3ccc(N4CCN(C)CC4)cc3)nc2n1-c1cccc(C(C)(C)O)n1 [AZD1775] (first compound max 1 µM, partner max 1 µM) equals -0.0352

Reported Bliss excess (NEC8 (Other Solid Carcinomas)) for entry COc1nnc2ccc(N3CCC(c4ccc(OCCN5CCN(C)C(=O)[C@H]5C)cc4)CC3)nn12 [AZD5153] + Cc1c2c(nn1C)CSCc1cc(n(C)n1)CSc1cc(c3ccccc3c1)OCCCc1c(C(=O)O)n(C)c3c-2c(Cl)ccc13 [AZD5991] (first compound max 1 µM, 7x7, partner max 1 µM) is 0.0672

Measured Bliss excess for this entry CC1(C)CCC(CN2CCN(c3ccc(C(=O)NS(=O)(=O)c4ccc(NCC5CCOCC5)c([N+](=O)[O-])c4)c(Oc4cnc5[nH]ccc5c4)c3)CC2)=C(c2ccc(Cl)cc2)C1 [Venetoclax] + CN(C)CCCOc1ccc(-c2ccc3ncc4c(c3c2)n(C2CCOCC2)c(=O)n4C)cn1 [AZD0156] (first compound max 1 µM, 7x7, partner max 1 µM) on NEC8 (Other Solid Carcinomas): 0.0105

Bliss excess of Cc1c2c(nn1C)CSCc1cc(n(C)n1)CSc1cc(c3ccccc3c1)OCCCc1c(C(=O)O)n(C)c3c-2c(Cl)ccc13 [AZD5991] + C1CN(CCC1(C(=O)N[C@@H](CCO)C2=CC=C(C=C2)Cl)N)C3=NC=NC4=C3C=CN4 [Capivasertib] (first compound max 1 µM, 7x7, partner max 3 µM) , assay on NEC8 (Other Solid Carcinomas), is 0.0812

Recorded Bliss excess for Cc1cc2ncnn2cc1Nc1ncc2c(n1)n(C1CCOCC1)c(=O)n2C [AZD7648] + O=C(c1cc(Cc2n[nH]c(=O)c3ccccc23)ccc1F)N1CCN(C(=O)C2CC2)CC1 [Olaparib] (first compound max 10 µM, 7x7, partner max 10 µM) on NEC8 (Other Solid Carcinomas) was 0.0327

Result for Cn1cnc2c(F)c(Nc3ccc(Br)cc3Cl)c(C(=O)NOCCO)cc21 [Selumetinib] + C[C@@H]1COCCN1C2=NC(=NC(=C2)C3(CC3)[S@](=N)(=O)C)C4=C5C=CNC5=NC=C4 [AZD6738] (first compound max 10 µM, 7x7, partner max 10 µM) , tested on NEC8 (Other Solid Carcinomas), Bliss excess: -0.0014

Reported Bliss excess (NEC8 (Other Solid Carcinomas)) for entry Cc1c2c(nn1C)CSCc1cc(n(C)n1)CSc1cc(c3ccccc3c1)OCCCc1c(C(=O)O)n(C)c3c-2c(Cl)ccc13 [AZD5991] + CCN(CCO)CCCOc1ccc2c(Nc3cc(CC(=O)Nc4cccc(F)c4)[nH]n3)ncnc2c1 [AZD2811] (first compound max 1 µM, 7x7, partner max 1 µM) is 0.0348
